Tested on: NCI-H460 lung
Assay: NCI-60 one-dose screen, 48 h
Details: 10 µM
The panel holds about 83,000 compounds, 20% with a hit somewhere; the sample as a whole holds those more often. Active and inactive are the calls of the source. Rule for the calls: active = growth percent below 10; inactive = the rest.
Hi there, use one of these labels in your reply, thanks! Y for active, N for inactive

Worked cases, answers included:
molecule	class
C/C=C/CSC(C)(C)C(=O)NC	N
COc1ccc2c(c1)OC(N)=C(C#N)C2c1cc(OC)c(OC)c(OC)c1 (stereo not drawn)	Y

[in] Could you kindly confirm the outcome this assay logged for COc1ccc(-c2cc(-c3ccccc3)nc(SCCCC(=O)NO)n2)cc1 ?
[out] Y

###

Recorded measurements of growth, one per entry
Test system: NCI-H226 lung
Test: NCI-60 one-dose screen, 48 h (100 = growth as untreated, 0 = no growth, -100 = all killed)
Details: 10 µM
About 83,000 compounds went through this panel and 20% of them were active in at least one assay; those are over-represented in the sample as a whole. The source made the active and inactive calls. Rule for the calls: active = growth percent below 10; inactive = the rest.

Answered cases to consult:
molecule	growth
COc1ccc(NC(=O)C2CC3C=CC2C3)c([N+](=O)[O-])c1 (stereo not given)	96.1% (inactive)
CC1OC2CC(=O)OC2C2=C1C(=O)c1c(O)c3c(c(O)c1C2=O)C1CC(O)C3(O)C(C)O1 (stereo not given)	-69% (active)
COc1ccc(/C=c2\sc3n(c2=O)C(c2cc(OC)c(OC)c(OC)c2)C=C(c2ccc(OC)c(OC)c2)N=3)cc1OC (stereo not given)	108% (inactive)
CC(C)(C)OC(=O)N1CCc2c(sc3ncnc(N/N=C/c4ccccc4Br)c23)C1	78% (inactive)

Measured growth, CCN1C(=O)CC(SC2CC(=O)N(CC)C2=O)C1=O (stereo not given) : 104% (inactive)

Measured growth, COc1cc(-c2csc(NC(=O)Nc3cc(C(F)(F)F)cc(C(F)(F)F)c3)n2)cc(OC)c1OC : 24.8% (inactive)

Measured growth, COc1cc(C(=O)/C=C/c2c[nH]c3ccccc23)cc(OC)c1OC : 55.6% (inactive)

Measured growth, CC(C)(C)OC(=O)N1CCc2c(sc3ncnc(N/N=C/c4cccc(Br)c4)c23)C1 : 67.3% (inactive)

Measured growth, O=C1CC(=O)N(C(=O)c2nn(-c3ccc(Cl)cc3)cc2O)N1 : 43.1% (inactive)

Measured growth, COc1cc(C(=O)N2CCN(c3cc4c(cc3F)c(=O)c(C(=O)NO)cn4C3CC3)CC2)cc(OC)c1OC : 95.1% (inactive)

Measured growth, COc1cc(/C=C/c2cc(/C=C/c3ccc(O)c(OC)c3)n(C(=O)Nc3ccc(C)cc3)n2)ccc1O : -0.891% (active)

Measured growth, CCCCCCCCCCCC[n+]1c(C)cc(N)c2ccccc21 : 11.1% (inactive)

Measured growth, N#Cc1cnn(C(=O)c2nn(-c3ccc(Cl)cc3)cc2O)c1N : 18.4% (inactive)

Measured growth, Cc1ccc(/C=C2/C(=O)N(C)c3ccc(S(=O)(=O)Nc4ccc(C(C)(C)C)cc4)cc32)s1 : 63.9% (inactive)

Measured growth, NC(=O)c1cccc(-n2ccc3cc(NC(=O)Nc4ccc(Cl)c(C(F)(F)F)c4)ccc32)n1 : 66.2% (inactive)
